test system: Mast/stem cell growth factor receptor Kit (Homo sapiens), P10721 [D816V]; settings: at 0.1 µM
Sequence (P10721 whole entry D816V): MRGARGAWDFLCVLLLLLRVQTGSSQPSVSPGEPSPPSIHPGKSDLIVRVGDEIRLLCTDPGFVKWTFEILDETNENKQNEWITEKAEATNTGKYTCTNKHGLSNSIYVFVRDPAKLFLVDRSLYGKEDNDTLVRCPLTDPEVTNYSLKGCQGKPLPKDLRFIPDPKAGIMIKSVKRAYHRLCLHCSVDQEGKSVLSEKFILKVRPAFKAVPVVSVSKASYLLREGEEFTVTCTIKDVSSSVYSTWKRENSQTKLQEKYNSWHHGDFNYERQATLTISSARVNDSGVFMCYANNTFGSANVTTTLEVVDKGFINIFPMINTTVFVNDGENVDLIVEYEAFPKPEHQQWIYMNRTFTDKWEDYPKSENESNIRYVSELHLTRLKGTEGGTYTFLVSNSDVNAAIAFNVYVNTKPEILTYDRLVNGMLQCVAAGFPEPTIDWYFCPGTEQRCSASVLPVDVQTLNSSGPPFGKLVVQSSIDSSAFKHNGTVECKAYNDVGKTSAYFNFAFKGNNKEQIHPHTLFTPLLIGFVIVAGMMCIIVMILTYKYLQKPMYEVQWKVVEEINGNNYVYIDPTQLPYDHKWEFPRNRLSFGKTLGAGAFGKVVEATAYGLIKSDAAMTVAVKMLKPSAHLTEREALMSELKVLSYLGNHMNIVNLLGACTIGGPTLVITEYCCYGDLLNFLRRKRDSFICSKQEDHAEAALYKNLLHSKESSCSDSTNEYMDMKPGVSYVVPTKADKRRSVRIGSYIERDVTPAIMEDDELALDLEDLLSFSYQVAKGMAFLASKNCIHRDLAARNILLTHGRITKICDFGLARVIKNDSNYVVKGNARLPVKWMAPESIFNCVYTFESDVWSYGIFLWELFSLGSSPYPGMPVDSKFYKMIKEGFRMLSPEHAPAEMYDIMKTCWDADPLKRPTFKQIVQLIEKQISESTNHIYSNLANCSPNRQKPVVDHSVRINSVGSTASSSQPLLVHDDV
assay_metric: inhibition (%)
Give just the numeric value; % need not be written.

Cc1ccc2c(-c3ccnc(Nc4ccccc4)n3)c(-c3ccc(F)cc3)nn2n1; 1.56

For CC(=O)NCc1cccc(C#Cc2cncnc2Nc2ccc(OCc3cccc(F)c3)c(Cl)c2)c1 , write its inhibition. -2.07

For Nc1nc(-c2cccc(Cl)c2)c(-c2ccc3ncccc3n2)s1 , write its inhibition. 1.78

---

target: Ephrin type-A receptor 2 (Homo sapiens) (UniProt P29317); settings: at 1 µM;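 also: value is the mean inhibition of EPHA2, measured in the GSK PKIS screen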
Sequence (P29317 whole entry): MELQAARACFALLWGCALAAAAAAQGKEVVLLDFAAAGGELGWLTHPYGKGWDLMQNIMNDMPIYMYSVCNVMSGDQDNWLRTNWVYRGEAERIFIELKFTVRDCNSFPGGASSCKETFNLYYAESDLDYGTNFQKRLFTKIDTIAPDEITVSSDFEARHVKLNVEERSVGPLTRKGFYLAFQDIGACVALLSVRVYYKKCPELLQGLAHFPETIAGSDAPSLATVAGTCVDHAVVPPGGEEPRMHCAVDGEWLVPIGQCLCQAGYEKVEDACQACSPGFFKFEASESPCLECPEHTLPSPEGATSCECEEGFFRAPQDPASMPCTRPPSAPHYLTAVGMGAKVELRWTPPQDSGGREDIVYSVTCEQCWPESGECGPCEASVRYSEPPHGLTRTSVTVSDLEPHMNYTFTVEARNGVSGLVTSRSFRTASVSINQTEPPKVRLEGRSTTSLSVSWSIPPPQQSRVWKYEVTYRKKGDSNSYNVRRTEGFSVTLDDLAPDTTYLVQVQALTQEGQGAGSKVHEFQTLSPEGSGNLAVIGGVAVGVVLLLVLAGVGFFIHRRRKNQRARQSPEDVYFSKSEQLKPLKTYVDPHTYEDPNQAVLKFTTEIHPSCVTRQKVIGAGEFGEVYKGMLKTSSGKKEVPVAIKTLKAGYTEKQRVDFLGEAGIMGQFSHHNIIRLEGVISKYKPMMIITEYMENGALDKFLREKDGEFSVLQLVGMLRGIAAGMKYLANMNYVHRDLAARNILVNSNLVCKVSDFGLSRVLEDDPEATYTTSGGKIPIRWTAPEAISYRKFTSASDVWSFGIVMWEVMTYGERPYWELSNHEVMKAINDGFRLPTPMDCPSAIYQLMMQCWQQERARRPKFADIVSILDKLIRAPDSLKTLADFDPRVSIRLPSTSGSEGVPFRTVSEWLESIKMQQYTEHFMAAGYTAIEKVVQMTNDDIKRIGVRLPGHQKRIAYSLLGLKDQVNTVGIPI
inhibition values for the compounds below.
Give just the numeric value; % need not be written.

CCCN(CCS(C)(=O)=O)Cc1ccc(-c2ccc3ncnc(Nc4ccc(OCc5cccc(F)c5)c(Cl)c4)c3c2)o1; -0.4

For COc1cccc(-n2ncc3c(N/N=C/c4ccc(F)cc4)ncnc32)c1 , write its inhibition. 5.62

For Cc1cccc2c1NC(=O)/C2=N\Nc1ccc(S(N)(=O)=O)cc1 , write its inhibition. 3.42

For Fc1ccc(-c2nn3ccccc3c2-c2ccncc2)cc1 , write its inhibition. -1.41

For [O-][S+]1CCN(Cc2ccc(-c3ccc4ncnc(Nc5ccc(OCc6cccc(F)c6)c(Cl)c5)c4c3)o2)CC1 , write its inhibition. 0.52

For NS(=O)(=O)c1ccc(Nc2ncc(-c3ccccc3)o2)cc1 , write its inhibition. 3.5
